# Tested on: KRAS PDC multicell spheroid viability
# RUN_DESCRIPTION: Anticancer human tumor 825966-067-R-J1-PDC patient-derived colon carcinoma cell line growth inhibition [KRAS2]
# DETAILS: second compound 0.316 µM; first compound 0.01 µM; active compounds read low
MEASURE: viability, T/C

compound="CC(C)n1nc(-c2ccc3oc(N)nc3c2)c2c(N)ncnc21 + COc1cc2nc(C)nc(NC(C)c3cc(N)cc(C(F)(F)F)c3)c2cc1OC1CCOC1" measure="viability, T/C" value_observed=137%
compound="CCN1CCN(Cc2ccc(Nc3ncc(F)c(-c4cc(F)c5nc(C)n(C(C)C)c5c4)n3)nc2)CC1 + CNCc1ccccc1-c1csc(C(C)Nc2nc(C)nc3cc(OC)c(OC)cc23)c1" measure="viability, T/C" value_observed=128%
compound="CC(=O)Nc1cccc(-n2c(=O)n(C3CC3)c(=O)c3c(Nc4ccc(I)cc4F)n(C)c(=O)c(C)c32)c1 + CNCc1ccccc1-c1csc(C(C)Nc2nc(C)nc3cc(OC)c(OC)cc23)c1" measure="viability, T/C" value_observed=106%
compound="CC(=O)Nc1cccc(-n2c(=O)n(C3CC3)c(=O)c3c(Nc4ccc(I)cc4F)n(C)c(=O)c(C)c32)c1 + COc1cc2nc(C)nc(NC(C)c3cc(N)cc(C(F)(F)F)c3)c2cc1OC1CCOC1" measure="viability, T/C" value_observed=94.2%
compound="CN(C)C/C=C/C(=O)Nc1cc2c(Nc3ccc(F)c(Cl)c3)ncnc2cc1O[C@H]1CCOC1 + CNCc1ccccc1-c1csc(C(C)Nc2nc(C)nc3cc(OC)c(OC)cc23)c1" measure="viability, T/C" value_observed=105%
compound="CC1COCCN1c1cc(-c2ccnn2C)c2ccnc(-c3ccn[nH]3)c2n1 (centres undefined) + CNCc1ccccc1-c1csc(C(C)Nc2nc(C)nc3cc(OC)c(OC)cc23)c1" measure="viability, T/C" value_observed=132%
compound="CC(=O)OC12COC1CC(O)C1(C)C(=O)C(O)C3=C(C)C(OC(=O)C(O)C(NC(=O)OC(C)(C)C)c4ccccc4)CC(O)(C(OC(=O)c4ccccc4)C21)C3(C)C (centres undefined) + COc1cc2nc(C)nc(NC(C)c3cc(N)cc(C(F)(F)F)c3)c2cc1OC1CCOC1" measure="viability, T/C" value_observed=23.8%
compound="CC1COCCN1c1cc(-c2ccnn2C)c2ccnc(-c3ccn[nH]3)c2n1 (centres undefined) + C=CC(=O)N1CCN(c2nc(=O)n(-c3c(C)ccnc3C(C)C)c3nc(-c4c(O)cccc4F)c(F)cc23)C(C)C1" measure="viability, T/C" value_observed=137%
compound="CCN1CCN(Cc2ccc(Nc3ncc(F)c(-c4cc(F)c5nc(C)n(C(C)C)c5c4)n3)nc2)CC1 + C=CC(=O)N1CCN(c2nc(OCC3CCCN3C)nc3c2CCN(c2cccc4cccc(C)c24)C3)CC1CC#N" measure="viability, T/C" value_observed=105%

---

# System: KRAS PDC multicell spheroid viability
# RUN_DESCRIPTION: Anticancer human tumor 825966-067-R-J1-PDC cell line growth inhibition [KRAS2];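 also: spheroids exposed to compounds for 7 days; 100% = DMSO vehicle control viability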
# DETAILS: second compound 0.1 µM; first compound 0.0316 µM; active compounds read low
viability, T/C: recorded values
MEASURE: viability, T/C

molecule="CC(=O)OC12COC1CC(O)C1(C)C(=O)C(O)C3=C(C)C(OC(=O)C(O)C(NC(=O)OC(C)(C)C)c4ccccc4)CC(O)(C(OC(=O)c4ccccc4)C21)C3(C)C (centres undefined) + C=CC(=O)N1CCN(c2nc(=O)n(-c3c(C)ccnc3C(C)C)c3nc(-c4c(O)cccc4F)c(F)cc23)C(C)C1" value_observed=30.6%
molecule="CC1(C)CCC(CN2CCN(c3ccc(C(=O)NS(=O)(=O)c4ccc(NCC5CCOCC5)c([N+](=O)[O-])c4)c(Oc4cnc5[nH]ccc5c4)c3)CC2)=C(c2ccc(Cl)cc2)C1 + CNCc1ccccc1-c1csc(C(C)Nc2nc(C)nc3cc(OC)c(OC)cc23)c1" value_observed=91.4%
molecule="CC1(C)CCC(CN2CCN(c3ccc(C(=O)NS(=O)(=O)c4ccc(NCC5CCOCC5)c([N+](=O)[O-])c4)c(Oc4cnc5[nH]ccc5c4)c3)CC2)=C(c2ccc(Cl)cc2)C1 + C=CC(=O)N1CCN(c2nc(OCC3CCCN3C)nc3c2CCN(c2cccc4cccc(C)c24)C3)CC1CC#N" value_observed=96.7%
molecule="COc1cc2nccc(Oc3ccc(NC(=O)C4(C(=O)Nc5ccc(F)cc5)CC4)cc3)c2cc1OC + C=CC(=O)N1CCN(c2nc(=O)n(-c3c(C)ccnc3C(C)C)c3nc(-c4c(O)cccc4F)c(F)cc23)C(C)C1" value_observed=108%
